Assay: recombinant UMI read abundance after kanamycin selection (control-corrected) (log10(CPM+1)); higher = more efficient recombination; extreme values may be limits of the assay; sequences stand for … in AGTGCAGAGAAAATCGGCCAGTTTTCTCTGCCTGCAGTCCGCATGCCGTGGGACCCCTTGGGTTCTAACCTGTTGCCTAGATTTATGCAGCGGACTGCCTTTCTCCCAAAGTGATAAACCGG…AGGTTGGTTTCACT; site = the 11-nt donor;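 also: IS621 bridge recombinase in Escherichia coli cells against a fixed T5 target plasmid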
I'd be grateful if you could share measured recombinant UMI read abundance (log10) for these entries.
One number for each entry.

A selection of reference data follows.
Biopolymer sequence	recombinant UMI read abundance (log10)
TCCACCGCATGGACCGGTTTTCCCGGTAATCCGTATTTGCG (site TCCACCGCTCG)	0.0267
ATATCTACATGGACCGGTTTTCCCGGTAATCCGTATTTGTG (site AGATCTACTCA)	0.401
GATTATCCATGGACCGGTTTTCCCGGTAATCCGTATTTGAT (site GATTATCCTAG)	0
AGGAAGACATGGACCGGTTTTCCCGGTAATCCGTATTTGTG (site AGGAAGACTTG)	0.492
CGTTTGCCATGGACCGGTTTTCCCGGTAATCCGTATTTGCT (site CGTTTGACTAG)	0
GACCTCACATGGACCGGTTTTCCCGGTAATCCGTATTTGAT (site GACCTCACTAT)	0.626
AACCTAGCATGGACCGGTTTTCCCGGTAATCCGTATTTGTT (site AACCTAGCTAA)	0.0287
GCCCGCTCATGGACCGGTTTTCCCGGTAATCCGTATTTGAG (site GCCCGCTCTCT)	0.704

Okay, next one:
Consider the sequence CACTTAACATGGACCGGTTTTCCCGGTAATCCGTATTTGCC (site CACTTAACTGG) . State its measured recombinant UMI read abundance (log10).
0.774
